ASSAYED_SYSTEM: bacteriophage T4 DNA polymerase (Enterobacteria phage T4)
Construct: made in house
Sequence (P04415 whole entry): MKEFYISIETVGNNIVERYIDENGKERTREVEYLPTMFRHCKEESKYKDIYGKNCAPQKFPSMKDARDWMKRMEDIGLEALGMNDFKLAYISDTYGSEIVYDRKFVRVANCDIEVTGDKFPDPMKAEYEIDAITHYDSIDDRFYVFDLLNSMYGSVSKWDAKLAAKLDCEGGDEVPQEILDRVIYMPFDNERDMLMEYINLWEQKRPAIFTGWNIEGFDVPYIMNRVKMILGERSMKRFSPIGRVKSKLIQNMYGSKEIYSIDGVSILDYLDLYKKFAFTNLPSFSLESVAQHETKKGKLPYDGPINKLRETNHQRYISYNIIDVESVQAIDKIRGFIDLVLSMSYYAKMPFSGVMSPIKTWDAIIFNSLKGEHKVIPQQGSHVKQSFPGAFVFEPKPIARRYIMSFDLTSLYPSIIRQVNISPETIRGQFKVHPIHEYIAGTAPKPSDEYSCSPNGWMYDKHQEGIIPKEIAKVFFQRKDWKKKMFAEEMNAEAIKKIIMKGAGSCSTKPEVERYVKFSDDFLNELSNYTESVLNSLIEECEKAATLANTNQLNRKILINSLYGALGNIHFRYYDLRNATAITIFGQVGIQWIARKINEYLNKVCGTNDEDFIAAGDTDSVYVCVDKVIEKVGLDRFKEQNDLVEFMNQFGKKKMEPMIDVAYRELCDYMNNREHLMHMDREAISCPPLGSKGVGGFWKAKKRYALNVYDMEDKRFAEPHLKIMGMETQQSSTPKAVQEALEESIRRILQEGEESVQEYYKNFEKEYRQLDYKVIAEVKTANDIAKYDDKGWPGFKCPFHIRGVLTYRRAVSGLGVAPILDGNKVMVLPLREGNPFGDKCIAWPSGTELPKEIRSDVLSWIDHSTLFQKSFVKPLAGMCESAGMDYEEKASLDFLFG
ASSAY_EXPLANATION: Counter-screen against bacteriophage T4 DNA polymerase
Assay type: biochemical
ASSAY_SETUP: DRC-2; read at 10'; concentration 5
ENDPOINT: % inhibition T4 10' 5 (%)
Numeric only. Scale: %

Worked examples follow.
                                   molecule  assay_value
0  Cc1ccc(N2CCC(NC(=O)Cc3cccs3)C2=O)cc1C (stereo not drawn) [Molecule 57, O=C(NC1CCN(C1=O)c1ccc(c(c1)C)C)Cc1cccs1]           12
1  N#Cc1c(O)nc(N2CCCCC2)nc1-c1ccc2c(c1)OCO2 [KU0083146]            9

Shift focus to the following entry.
For this molecule ( Cc1cccc(-c2noc(C(=O)NNC(=O)C(Cl)(Cl)Cl)n2)c1 [KU0266208] ), measured % inhibition T4 10' 5 is -1.26
